Reported pKi values for a set of molecules
Target: OX1R (Rattus norvegicus, UniProt P56718)
Sequence (P56718 1-416): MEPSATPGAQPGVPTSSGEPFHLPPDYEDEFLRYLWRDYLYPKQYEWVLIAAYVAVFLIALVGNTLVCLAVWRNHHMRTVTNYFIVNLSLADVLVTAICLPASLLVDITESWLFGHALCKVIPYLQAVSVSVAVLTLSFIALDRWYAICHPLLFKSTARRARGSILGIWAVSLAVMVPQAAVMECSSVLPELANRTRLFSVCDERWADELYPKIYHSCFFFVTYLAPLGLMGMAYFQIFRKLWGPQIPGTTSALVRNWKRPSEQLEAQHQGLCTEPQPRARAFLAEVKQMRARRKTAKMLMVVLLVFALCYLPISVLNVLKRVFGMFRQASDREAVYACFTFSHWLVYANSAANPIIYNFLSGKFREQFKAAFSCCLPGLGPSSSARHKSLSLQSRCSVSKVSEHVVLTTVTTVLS
Remember the convention: pKi equals -log10 of concentration in molar.

# annotated cases, reported pKi shown
COc1ccc(CNC(=O)c2cc(-c3cncc(C)c3)ncc2-c2nccs2)nc1OC [MK-3697]	5.62
COc1ccc(CNC(=O)c2cc(-c3cncc(C)c3)ncc2-c2ccccc2)nc1OC [2-SORA-7]	5.58
COc1ccc(CNC(=O)c2cc(-c3cncc(Cl)c3)cnc2-c2ccccn2)nc1OC [MK-1064]	5.97
COc1ccc(CNC(=O)c2cc(-c3cc(Cl)cc(Cl)c3)cnc2-c2cccnc2)cc1OC [2-SORA-18]	7.03

Shifting focus to the molecule that follows.
Query: Consider the molecule shown here: Cc1ccc(-c2ncccn2)c(C(=O)N2C[C@H](COc3ccc(F)cn3)CC[C@H]2C)c1 [MK-6096] What is its recorded pKi?
Result: 8.60
